meta.source: paper PMC12613848

experiment: Plasma pharmacokinetics of DT2216 in patients, phase 1 dose escalation; type: in vivo, human; conditions: human, plasma, iv, 0.12 mg/kg, Cycle 1 Day 1, 0.12 mg/kg IV, plasma, mean (CV%), N = 1; read-out: T½ (converted)
VALUE_TYPE: half-life
Note: a bare number is incomplete; add the unit.

Which half-life reading was recorded for the compound `Cc1ncsc1-c1ccc([C@H](C)NC(=O)[C@@H]2C[C@@H](O)CN2C(=O)[C@@H](NC(=O)CCCCCC(=O)N2CCN(CC[C@H](CSc3ccccc3)Nc3ccc(S(=O)(=O)NC(=O)c4ccc(N5CCN(CC6=C(c7ccc(Cl)cc7)CCC(C)(C)C6)CC5)cc4)cc3S(=O)(=O)C(F)(F)F)CC2)C(C)(C)C)cc1` ?
8.92 h
